Numbers sourced from patent US20110104055A1.

TARGET_ENTITY: Aβ 1-42 fibrils (Homo sapiens, UniProt P05067)
Construct: purchased Bachem Inc
Sequence (P05067 672-713): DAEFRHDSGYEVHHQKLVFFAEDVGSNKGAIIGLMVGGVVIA
METHOD_SUMMARY: Thioflavin T fluorometry, disruption of pre-formed Aβ 1-42 fibrils (Example 11)
Assay type: biochemical
TEST_CONTEXT: Aβ:test compound wt/wt ratio 1:1; 30 μg pre-fibrillized Aβ 1-42, 37° C., 3 days
ASSAY_READOUT: % Inhibition Aβ (result ± S.D.), Thioflavin T fluorometry (%)
State just the number; it will be interpreted in %.

Exercise: Requested field: % Inhibition Aβ (result ± S.D.), Thioflavin T fluorometry. Item: O=C(Nc1ccc(O)c(O)c1)c1ccc(O)c(O)c1F [DC-0051-F1]
Solution: 98.7

Exercise: Now give it for O=C(Nc1ccc(O)c(O)c1F)c1ccc(O)c(O)c1 [DC-0051-F6] too.
Solution: 99.4

Exercise: Now give it for O=C(Nc1ccc(O)c(O)c1)c1cc(O)c(O)cc1F [DC-0051-F2] too.
Solution: 99.6

Exercise: Now give it for O=C(Nc1cc(O)c(O)cc1F)c1ccc(O)c(O)c1 [DC-0051-F5] too.
Solution: 99.8

Exercise: Now give it for O=C(O)CN(CCN(CC(=O)O)CC(=O)O)CC(=O)O [EDTA] too.
Solution: 0.0

Exercise: Now give it for O=C(Nc1ccc(O)c(O)c1)c1cc(O)c(O)c(F)c1 [DC-0051-F3] too.
Solution: 99.0

Exercise: Now give it for O=C(Nc1cc(O)c(O)c(F)c1)c1ccc(O)c(O)c1 [DC-0051-F4] too.
Solution: 99.7

----------
TARGET_ENTITY: α-synuclein fibrils (Homo sapiens, UniProt P37840)
Construct: purchased rPeptide
METHOD_SUMMARY: Thioflavin T fluorometry, disruption of pre-formed α-synuclein fibrils (Example 12)
Type: biochemical
TEST_CONTEXT: α-synuclein:test compound wt/wt ratio 1:0.001; 30 μg pre-fibrillized α-synuclein, 37° C., 3 days
# binarize % Inhibition α-synuclein (result ± S.D.), Thioflavin T fluorometry: threshold 10% inclusive, high side MET, low side NOT MET

Exercise: Hello, I need to know if O=C(O)CN(CCN(CC(=O)O)CC(=O)O)CC(=O)O has measured % Inhibition α-synuclein (result ± S.D.), Thioflavin T fluorometry not below 10%. Thanks!
Solution: NOT MET

Exercise: Now give it for O=C(Nc1ccc(O)c(O)c1F)c1ccc(O)c(O)c1 too.
Solution: NOT MET

Exercise: Now give it for O=C(Nc1ccc(O)c(O)c1)c1cc(O)c(O)c(F)c1 too.
Solution: MET

Exercise: Now give it for O=C(Nc1ccc(O)c(O)c1)c1cc(O)c(O)cc1F too.
Solution: MET

Exercise: Now give it for O=C(Nc1cc(O)c(O)c(F)c1)c1ccc(O)c(O)c1 too.
Solution: NOT MET

Exercise: Now give it for O=C(Nc1ccc(O)c(O)c1)c1ccc(O)c(O)c1F too.
Solution: MET

Exercise: Now give it for O=C(Nc1cc(O)c(O)cc1F)c1ccc(O)c(O)c1 too.
Solution: NOT MET

----------
Could you please report measured % Inhibition α-synuclein (result ± S.D.), Thioflavin T fluorometry for the items listed next?
TARGET_ENTITY: α-synuclein fibrils (Homo sapiens)
Construct: purchased rPeptide
METHOD_SUMMARY: Thioflavin T fluorometry, disruption of pre-formed α-synuclein fibrils (Example 12)
Assay type: biochemical
TEST_CONTEXT: α-synuclein:test compound wt/wt ratio 1:0.1; 30 μg pre-fibrillized α-synuclein, 37° C., 3 days
State just the number; it will be interpreted in %.

Exercise: Requested field: % Inhibition α-synuclein (result ± S.D.), Thioflavin T fluorometry. Item: O=C(Nc1ccc(O)c(O)c1)c1cc(O)c(O)cc1F
Solution: 94.7

Exercise: Now give it for O=C(Nc1ccc(O)c(O)c1F)c1ccc(O)c(O)c1 too.
Solution: 94.7

Exercise: Now give it for O=C(Nc1cc(O)c(O)cc1F)c1ccc(O)c(O)c1 too.
Solution: 94.7

Exercise: Now give it for O=C(Nc1ccc(O)c(O)c1)c1cc(O)c(O)c(F)c1 too.
Solution: 92.5

Exercise: Now give it for O=C(O)CN(CCN(CC(=O)O)CC(=O)O)CC(=O)O too.
Solution: 0.0

Exercise: Now give it for O=C(Nc1ccc(O)c(O)c1)c1ccc(O)c(O)c1F too.
Solution: 90.4

Exercise: Now give it for O=C(Nc1cc(O)c(O)c(F)c1)c1ccc(O)c(O)c1 too.
Solution: 94.3

----------
TARGET_ENTITY: Aβ 1-42 fibrils (Homo sapiens, UniProt P05067)
Construct: purchased Bachem Inc
METHOD_SUMMARY: Thioflavin T fluorometry, disruption of pre-formed Aβ 1-42 fibrils (Example 11)
Format: biochemical
TEST_CONTEXT: Aβ:test compound wt/wt ratio 1:0.001; 30 μg pre-fibrillized Aβ 1-42, 37° C., 3 days
ASSAY_READOUT: % Inhibition Aβ (result ± S.D.), Thioflavin T fluorometry (%)
State just the number; it will be interpreted in %.

Exercise: Requested field: % Inhibition Aβ (result ± S.D.), Thioflavin T fluorometry. Item: O=C(Nc1ccc(O)c(O)c1F)c1ccc(O)c(O)c1
Solution: 9.6

Exercise: Now give it for O=C(Nc1ccc(O)c(O)c1)c1cc(O)c(O)cc1F too.
Solution: 17.1

Exercise: Now give it for O=C(Nc1cc(O)c(O)cc1F)c1ccc(O)c(O)c1 too.
Solution: 19.5

Exercise: Now give it for O=C(Nc1cc(O)c(O)c(F)c1)c1ccc(O)c(O)c1 too.
Solution: 16.0

Exercise: Now give it for O=C(O)CN(CCN(CC(=O)O)CC(=O)O)CC(=O)O too.
Solution: 0.0

Exercise: Now give it for O=C(Nc1ccc(O)c(O)c1)c1cc(O)c(O)c(F)c1 too.
Solution: 15.1

Exercise: Now give it for O=C(Nc1ccc(O)c(O)c1)c1ccc(O)c(O)c1F too.
Solution: 15.6

----------
TARGET_ENTITY: α-synuclein fibrils (Homo sapiens)
Construct: purchased rPeptide
METHOD_SUMMARY: Thioflavin T fluorometry, disruption of pre-formed α-synuclein fibrils (Example 12)
Type: biochemical
TEST_CONTEXT: α-synuclein:test compound wt/wt ratio 1:1; 30 μg pre-fibrillized α-synuclein, 37° C., 3 days
ASSAY_READOUT: % Inhibition α-synuclein (result ± S.D.), Thioflavin T fluorometry (%)
State just the number; it will be interpreted in %.

Exercise: Requested field: % Inhibition α-synuclein (result ± S.D.), Thioflavin T fluorometry. Item: O=C(Nc1ccc(O)c(O)c1F)c1ccc(O)c(O)c1
Solution: 100.0

Exercise: Now give it for O=C(Nc1ccc(O)c(O)c1)c1cc(O)c(O)cc1F too.
Solution: 100.0

Exercise: Now give it for O=C(O)CN(CCN(CC(=O)O)CC(=O)O)CC(=O)O too.
Solution: 0.0

Exercise: Now give it for O=C(Nc1ccc(O)c(O)c1)c1ccc(O)c(O)c1F too.
Solution: 100.0

Exercise: Now give it for O=C(Nc1cc(O)c(O)c(F)c1)c1ccc(O)c(O)c1 too.
Solution: 100.0

Exercise: Now give it for O=C(Nc1cc(O)c(O)cc1F)c1ccc(O)c(O)c1 too.
Solution: 98.9

Exercise: Now give it for O=C(Nc1ccc(O)c(O)c1)c1cc(O)c(O)c(F)c1 too.
Solution: 96.8

----------
Could you please report measured % Inhibition α-synuclein (result ± S.D.), Congo red binding for the items listed next?
TARGET_ENTITY: α-synuclein fibrils (Homo sapiens, UniProt P37840)
Construct: purchased rPeptide
METHOD_SUMMARY: Congo red binding assay, α-synuclein fibrils (Example 12)
Type: biochemical
TEST_CONTEXT: α-synuclein:test compound wt/wt ratio 1:0.1; 3-day incubation
State just the number; it will be interpreted in %.

Exercise: Requested field: % Inhibition α-synuclein (result ± S.D.), Congo red binding. Item: O=C(Nc1ccc(O)c(O)c1)c1cc(O)c(O)c(F)c1
Solution: 23.3

Exercise: Now give it for O=C(Nc1cc(O)c(O)c(F)c1)c1ccc(O)c(O)c1 too.
Solution: 18.0

Exercise: Now give it for O=C(Nc1ccc(O)c(O)c1F)c1ccc(O)c(O)c1 too.
Solution: 29.9

Exercise: Now give it for O=C(Nc1ccc(O)c(O)c1)c1cc(O)c(O)cc1F too.
Solution: 36.5

Exercise: Now give it for O=C(Nc1ccc(O)c(O)c1)c1ccc(O)c(O)c1F too.
Solution: 32.9

Exercise: Now give it for O=C(O)CN(CCN(CC(=O)O)CC(=O)O)CC(=O)O too.
Solution: 2.2

Exercise: Now give it for O=C(Nc1cc(O)c(O)cc1F)c1ccc(O)c(O)c1 too.
Solution: 32.7

----------
TARGET_ENTITY: α-synuclein fibrils (Homo sapiens, UniProt P37840)
Construct: purchased rPeptide
METHOD_SUMMARY: Congo red binding assay, α-synuclein fibrils (Example 12)
Format: biochemical
TEST_CONTEXT: α-synuclein:test compound wt/wt ratio 1:0.01; 3-day incubation
Experimental: In the Congo red binding assay, the ability of a given test compound to alter amyloid (in this case, α-synuclein) binding to Congo red is quantified. In this assay, α-synuclein and test compounds were incubated for 3 days and then vacuum filtered through a 0.2 μm filter. The amount of α-synuclein retained in the filter was then quantitated following staining of the filter with Congo red. […]
ASSAY_READOUT: % Inhibition α-synuclein (result ± S.D.), Congo red binding

Exercise: Requested field: % Inhibition α-synuclein (result ± S.D.), Congo red binding. Item: O=C(Nc1ccc(O)c(O)c1F)c1ccc(O)c(O)c1
Solution: 1.4 ± 5.69%

Exercise: Now give it for O=C(O)CN(CCN(CC(=O)O)CC(=O)O)CC(=O)O too.
Solution: 2.9 ± 5.0%

Exercise: Now give it for O=C(Nc1ccc(O)c(O)c1)c1cc(O)c(O)cc1F too.
Solution: 3.7 ± 2.83%

Exercise: Now give it for O=C(Nc1ccc(O)c(O)c1)c1cc(O)c(O)c(F)c1 too.
Solution: 2.6 ± 4.90%

Exercise: Now give it for O=C(Nc1cc(O)c(O)cc1F)c1ccc(O)c(O)c1 too.
Solution: 5.0 ± 5.47%

Exercise: Now give it for O=C(Nc1cc(O)c(O)c(F)c1)c1ccc(O)c(O)c1 too.
Solution: 0.0 ± 3.44%

Exercise: Now give it for O=C(Nc1ccc(O)c(O)c1)c1ccc(O)c(O)c1F too.
Solution: 3.8 ± 5.82%
